Overview of recorded Kd for various binders
# EXPERIMENTAL_SYSTEM: GST-PIN1 (UniProt Q13526 1-163, methionine (Met 1) mutated to asparagine (Asn 1))
# Sequence (Q13526 other isoform, or with tags, fused parts or gaps methionine (Met 1) mutated to asparagine (Asn 1)): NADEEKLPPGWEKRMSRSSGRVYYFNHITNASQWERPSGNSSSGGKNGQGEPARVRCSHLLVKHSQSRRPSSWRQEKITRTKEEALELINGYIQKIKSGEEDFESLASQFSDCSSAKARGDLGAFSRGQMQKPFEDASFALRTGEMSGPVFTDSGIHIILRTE
# EXPERIMENT: FP; 100 uM juglone
Square brackets hold non-standard residues; d marks the D form. fluorescein = fluorescein label at the N-terminus via an aminohexanoic acid (Ahx) linker; pS = N[C@@H](COP(=O)(O)O)C(=O)O; Ahx = NCCCCCC(=O)O
Supply the numeric figure in nM, leaving out any unit text.

binder="{fluorescein-Ahx}-DMVQPL[pS]PSQGQST-OH (NRF2 (nuclear factor erythroid 2-related factor 2), residues 402-415, linker between the Neh6 and Neh1 domains; source: synthetic peptide, bought: China Peptides) [fluorescein-labelled NRF2(402-415) pSer408 phospho-peptide]" readout_name=Kd observed=3900

Q: Look up and report measured Kd for this entry: {fluorescein-Ahx}-EDGKPY[pS]PSEYDLQ-OH (NRF2 (nuclear factor erythroid 2-related factor 2), residues 571-584, in the Neh3 domain; see recheck for residue 582; source: synthetic peptide, bought: China Peptides) [fluorescein-labelled NRF2(571-584) pSer577 phospho-peptide]
Ans: 1000

Q: Look up and report measured Kd for this entry: {fluorescein-Ahx}-ETTMVP[pS]PEAKLTE-OH (NRF2 (nuclear factor erythroid 2-related factor 2), residues 209-222, in the Neh7 domain; also called Peptide 1; source: synthetic peptide, bought: China Peptides) [fluorescein-labelled NRF2(209-222) pSer215 phospho-peptide]
Ans: 1300
